- experimental_details: AUC in Sprague-Dawley rat brain at 1 mg/kg, po
- Assay type: ADME, organism-based

>  <chemical_smiles>
Nc1ccc(-c2ccc(F)cc2)cc1NC(=O)[C@@H]1C[C@H]2CC[C@@H](C1)O2

>  <AUC [µM·h]>
1.8

$$$$

* * *

- assay_target: Protein deacetylase HDAC6 (Homo sapiens)
- Sequence (Q9UBN7 whole entry): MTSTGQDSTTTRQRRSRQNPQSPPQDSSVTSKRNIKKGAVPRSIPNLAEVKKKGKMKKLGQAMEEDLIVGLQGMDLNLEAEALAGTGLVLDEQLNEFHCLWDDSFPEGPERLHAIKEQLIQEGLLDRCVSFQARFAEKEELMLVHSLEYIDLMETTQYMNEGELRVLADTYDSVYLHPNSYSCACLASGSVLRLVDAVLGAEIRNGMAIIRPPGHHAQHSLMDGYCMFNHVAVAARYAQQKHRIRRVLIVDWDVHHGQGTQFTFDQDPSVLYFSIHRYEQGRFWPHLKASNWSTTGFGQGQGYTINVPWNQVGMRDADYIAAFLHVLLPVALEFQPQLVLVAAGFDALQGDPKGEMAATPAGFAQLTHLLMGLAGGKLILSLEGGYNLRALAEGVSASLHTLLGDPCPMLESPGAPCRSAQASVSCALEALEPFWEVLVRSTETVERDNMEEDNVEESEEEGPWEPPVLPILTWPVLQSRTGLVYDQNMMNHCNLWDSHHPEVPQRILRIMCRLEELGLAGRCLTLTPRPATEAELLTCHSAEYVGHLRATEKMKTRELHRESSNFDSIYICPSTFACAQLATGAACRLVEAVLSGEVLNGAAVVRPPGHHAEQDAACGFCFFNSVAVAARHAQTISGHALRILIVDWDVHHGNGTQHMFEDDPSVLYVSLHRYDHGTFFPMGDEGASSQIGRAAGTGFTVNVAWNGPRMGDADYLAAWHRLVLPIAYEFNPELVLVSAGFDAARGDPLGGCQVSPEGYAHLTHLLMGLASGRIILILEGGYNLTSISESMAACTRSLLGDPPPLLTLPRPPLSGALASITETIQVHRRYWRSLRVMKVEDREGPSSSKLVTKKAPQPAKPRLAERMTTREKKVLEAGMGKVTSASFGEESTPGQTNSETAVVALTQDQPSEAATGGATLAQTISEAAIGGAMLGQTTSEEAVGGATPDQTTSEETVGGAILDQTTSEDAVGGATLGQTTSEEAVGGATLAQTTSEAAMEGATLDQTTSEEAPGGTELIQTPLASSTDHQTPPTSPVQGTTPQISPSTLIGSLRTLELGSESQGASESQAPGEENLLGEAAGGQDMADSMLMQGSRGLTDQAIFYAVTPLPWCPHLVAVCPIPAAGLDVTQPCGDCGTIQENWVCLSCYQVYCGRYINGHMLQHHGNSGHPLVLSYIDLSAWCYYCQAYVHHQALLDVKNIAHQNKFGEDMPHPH
- experimental_details: Inhibition of human recombinant HDAC6 expressed in baculovirus coexpressed in fall armyworm Sf9 cells using carboxyfluorescein (FAM)-labeled acetylated/ trifluoroacetylated peptide as substrate after 60 mins by fluorescence assay
outcome_measure: IC50

>  <chemical_smiles>
Nc1ccc(-c2ccc(F)cc2)cc1NC(=O)[C@@H]1C[C@H]2CC[C@@H](C1)O2

>  <result>
> 33.3 µM

$$$$

* * *

- assay_target: Histone deacetylase 3 (Homo sapiens, UniProt O15379)
- Sequence (O15379 whole entry): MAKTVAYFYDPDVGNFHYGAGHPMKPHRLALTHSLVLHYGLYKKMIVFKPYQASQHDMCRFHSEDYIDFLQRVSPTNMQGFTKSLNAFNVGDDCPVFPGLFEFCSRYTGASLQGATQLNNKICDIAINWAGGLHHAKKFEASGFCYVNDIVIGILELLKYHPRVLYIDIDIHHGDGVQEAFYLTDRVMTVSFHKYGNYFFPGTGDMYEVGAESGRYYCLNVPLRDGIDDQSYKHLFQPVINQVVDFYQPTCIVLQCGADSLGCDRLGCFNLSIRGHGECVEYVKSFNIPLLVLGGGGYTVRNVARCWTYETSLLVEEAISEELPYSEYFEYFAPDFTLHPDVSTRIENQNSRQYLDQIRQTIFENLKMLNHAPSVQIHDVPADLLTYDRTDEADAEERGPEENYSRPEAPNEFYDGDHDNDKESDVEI

>  <chemical_smiles>
Nc1ccc(-c2ccc(F)cc2)cc1NC(=O)[C@H]1CCCCO1

>  <IC50 (µM)>
5.73

$$$$
